System: UO-31 renal
assay notes: NCI-60 one-dose screen, 48 h
protocol conditions: 10 µM unless noted
About 83,000 compounds went through this panel and 20% of them were active in at least one assay; those are over-represented in the sample as a whole. Calls of active or inactive are those of the source. The calls were made as follows: active = growth percent below 10; inactive = the rest.
The reply should name one outcome from active, inactive

// below: answered molecules
- smiles data: "CCc1ccc(CCC(=O)Nc2ncc(Cc3cc(Cl)ccc3Cl)s2)o1"
  cat: "inactive"
- smiles data: "O=c1c2ccccc2c(=O)c2c1sc1c(=O)c3ccc(O)cc3c(=O)c12"
  cat: "active"

# evaluate next
(Q) What was the test verdict on `O=C(Nc1cnc(Nc2ccc(N3CCOCC3)nc2)nc1Oc1ccc(C(F)(F)F)cc1)c1ccncc1` ?
(A) inactive

###

Tested on: EKVX NSCLC
assay notes: NCI-60 one-dose screen, 48 h
protocol conditions: 10 µM unless noted
Compounds without any hit were thinned out: in the full panel of roughly 83,000, 20% have a hit. The source made the active and inactive calls. The calls were made as follows: active = growth percent below 10; inactive = the rest.
The reply should name one outcome from class 1 = active, class 0 = inactive

- molecule: "COc1cc(Cl)c(C)cc1NC(=O)c1cc2ccccc2cc1O"
  cat: "class 1"

(Q) What was the test verdict on Cc1nc2c(c(=O)[nH]1)C(c1ccccc1)c1ccc3ccccc3c1O2 (configuration not stated) ?
(A) class 0

(Q) What was the test verdict on COc1ccc(C2=NN(C(C)=O)C(c3cn(-c4ccccc4)nc3-c3ccc(Cl)cc3)C2)cc1 (configuration not stated) ?
(A) class 0

(Q) What was the test verdict on `CCOC(=O)c1c(C)nc2c(c1N)/C(=C/c1ccc(OC)cc1)C(=O)N2Cc1ccccc1` ?
(A) class 0

(Q) What was the test verdict on `C=C(C)[C@@H]1CCC[C@]2(C(=O)O)CC[C@]3(C)[C@@H](CC[C@@H]4[C@@]5(C)C/C(=C/c6ccncc6)C(=O)C(C)(C)[C@@H]5CC[C@]43C)[C@@H]12` ?
(A) class 0

(Q) What was the test verdict on `CN(C)c1ccc(-c2nc(-c3ccccc3)c(-c3ccccc3)[nH]2)cc1` ?
(A) class 0

(Q) What was the test verdict on `CSC1=Nc2c(c(C)c(-c3ccccc3)n2CCCC(=O)O)C2=NC(=O)C[C@H](C)N12` ?
(A) class 0

###

System: NCI-H522 lung
assay notes: NCI-60 one-dose screen, 48 h (100 = growth as untreated, 0 = no growth, -100 = all killed)
protocol conditions: 10 µM unless noted
Compounds without any hit were thinned out: in the full panel of roughly 83,000, 20% have a hit.
What growth was measured for each of the following?
Give bare numbers, in %.

Study these solved cases before continuing.
- molecule: "CCN1CCN(CC(=O)Nc2nc3ccc(NCc4ccc(F)cc4)cc3s2)CC1"
  observed: 104
- molecule: "N#CSc1c[nH]c2cccc(/C=C/C(=O)/C=C(O)/C=C/c3cccc4[nH]cc(SC#N)c34)c12"
  observed: -68.2
- molecule: "CC1=C(C(=O)Nc2ccccc2)C(c2ccc3c(c2)OCO3)NC(=S)N1 (centres undefined)"
  observed: 87.9

Now consider the entry below.
(Q) Look up growth: `C[C@@H]1O[C@@H](O[C@@H]2C[C@H](c3ccc4c(c3O)C(=O)C3=C(C4=O)[C@@]4(O)C(=O)C[C@](C)(O)C[C@@]4(O)C=C3)O[C@H](C)[C@H]2O)CC[C@@H]1O[C@H]1C[C@@H](O)[C@H](O)[C@@H](C)O1`
(A) 41.5

###

Test system: 786-0 renal
assay notes: NCI-60 one-dose screen, 48 h
protocol conditions: 10 µM unless noted
About 83,000 compounds went through this panel and 20% of them were active in at least one assay; those are over-represented in the sample as a whole. Active and inactive are the calls of the source. How the source made its calls: active means growth percent below 10; inactive means the rest.
The reply should name one outcome from 1.0 for active, 0.0 for inactive

(Q) What was the test verdict on `CNC(=O)c1cc(Oc2ccc3c(c2)sc2nc(-c4ccc(OC)cc4)cn23)ccn1` ?
(A) 0.0

(Q) What was the test verdict on `CN1CCN(Cc2ccc(NC(=O)c3cncc(C#Cc4cnc5ccc(Cl)nn45)c3)cc2C(F)(F)F)CC1` ?
(A) 1.0

(Q) What was the test verdict on `Cc1ccc(CNc2c3ccccc3nc3ccccc23)cc1` ?
(A) 0.0

###

System: HCC-2998 colon
assay notes: NCI-60 one-dose screen, 48 h
protocol conditions: 10 µM unless noted
The panel holds about 83,000 compounds, 20% with a hit somewhere; the sample as a whole holds those more often. Activity calls are given as the source filed them. How the source made its calls: active means growth percent below 10; inactive means the rest.
The reply should name one outcome from label 1 (active), label 0 (inactive)

(Q) What was the test verdict on `CC1(C)CC2=C3C=C[C@@H]4[C@@]5(C)CCC(=O)C(C)(C)[C@@H]5CC[C@@]4(C)[C@]3(C)CC[C@@]2(C(=O)O)C[C@H]1O` ?
(A) label 0

###

System: K-562 leukemia
assay notes: NCI-60 one-dose screen, 48 h (100 = growth as untreated, 0 = no growth, -100 = all killed)
protocol conditions: 10 µM unless noted
Compounds without any hit were thinned out: in the full panel of roughly 83,000, 20% have a hit. Calls of active or inactive are those of the source. The calls were made as follows: active = growth percent below 10; inactive = the rest.
measured quantity: growth

Study these solved cases before continuing.
- molecule: "CC(=O)OC[C@]12CC[C@@H]([C@@H](C)c3nnc(-c4ccncc4)o3)[C@@H]1[C@H]1CC[C@@H]3[C@@]4(C)CC[C@H](OC(C)=O)C(C)(C)[C@@H]4CC[C@@]3(C)[C@]1(C)CC2"
  measured quantity: "growth"
  observed: "46.4% (inactive)"
- molecule: "C=CC(=O)Nc1ccc(Oc2nccc(Nc3nnc(-c4ccc(C)cc4)s3)n2)cc1"
  measured quantity: "growth"
  observed: "29.4% (inactive)"
- molecule: "COc1cccc(NCc2nnc(Nc3ccc(Cl)cc3)c3ccccc23)c1"
  measured quantity: "growth"
  observed: "2.2% (active)"
- molecule: "O=S(=O)(Oc1ccc(Br)cc1)c1ccc(Cl)cc1"
  measured quantity: "growth"
  observed: "108% (inactive)"
- molecule: "C=CCN1C(=O)c2cccc3c(N4CCOCC4)ccc(c23)C1=O"
  measured quantity: "growth"
  observed: "9.78% (active)"

Look at each molecule and report its growth.
1. CN(C)CCCNC(=O)c1cncnc1Nc1ccc(OCc2cccc(F)c2)c(Cl)c1
2. O=c1c2c3c(sc2n2c(-c4cc(-c5ccccc5)no4)nnc2n1Cc1ccccc1)CCCC3
3. CS(=O)(=O)c1ccc(NC(=O)c2ccccc2)nc1
4. CC1=CCC(OC(=O)C(C)(C)CC(O)(C(C)O)C(O)C2(C)C=CC(Cc3ccc(C(C)C)cc3)(C(C)C)CC2)(C(C)C)CC1 (configuration not stated)
5. CN1CCN(CCOc2ccc(-c3cnc4c(-c5cccc(F)c5F)cnn4c3)cc2)CC1
6. CCOC(=O)c1c(C)nc2ccccc2c1/C=C/c1cccs1

(A)
1. -57.7% (active)
2. 64.9% (inactive)
3. 100% (inactive)
4. 9.06% (active)
5. -31.3% (active)
6. 50.3% (inactive)

###

System: LOX IMVI melanoma
assay notes: NCI-60 one-dose screen, 48 h (100 = growth as untreated, 0 = no growth, -100 = all killed)
protocol conditions: 10 µM unless noted
This is part of a sample that, as a whole, favours compounds with a hit. Of some 83,000 tested, about 20% had one in any assay.
// NB: equality with 30% counts as 0.0; only growth strictly below is 1.0

(Q) Hello, I'm reviewing records and need to know if growth of `Cc1ccc(NC(=O)Cn2c(Br)nc3c2c(=O)n(C)c(=O)n3C)cc1` is below 30%. Could you check?
(A) 1.0

(Q) Hello, I'm reviewing records and need to know if growth of `CCOC(=O)C#Cc1c(C(=O)OCC)nnn1Cc1ccc(C(F)(F)F)cc1` is below 30%. Could you check?
(A) 1.0

(Q) Hello, I'm reviewing records and need to know if growth of `CCn1c(-c2cc3c([nH]c4ccccc43)c(-c3cccc(O)c3)n2)n[nH]c1=S` is below 30%. Could you check?
(A) 0.0

(Q) Hello, I'm reviewing records and need to know if growth of N#Cc1cccc(C2C3=C(COC3=O)N(CCO)c3cc4c(cc32)OCO4)c1 (stereo unspecified) is below 30%. Could you check?
(A) 0.0

(Q) Hello, I'm reviewing records and need to know if growth of `CN(CCCNC(=O)CCOCCOCCOCCNC(=O)Cc1ccc2ccc3cccc4ccc1c2c34)CCCNc1cc(-c2ccc3ccccc3c2)nc2ccccc12` is below 30%. Could you check?
(A) 1.0

(Q) Hello, I'm reviewing records and need to know if growth of `CC1(C)N=C(N)N=C(N)N1c1cccc(CCc2ccccc2)c1` is below 30%. Could you check?
(A) 1.0

(Q) Hello, I'm reviewing records and need to know if growth of `CN(C)c1ccc(/C=C(\C#N)c2cc3ccccc3[nH]2)cc1` is below 30%. Could you check?
(A) 1.0

(Q) Hello, I'm reviewing records and need to know if growth of `N#CSc1c[nH]c2cccc(/C=C/C(=O)/C=C(O)/C=C/c3cccc4[nH]cc(SC#N)c34)c12` is below 30%. Could you check?
(A) 1.0

(Q) Hello, I'm reviewing records and need to know if growth of `CC/C=C\C[C@H](O)C/C=C1/C(=O)C=C[C@@H]1C/C=C\CCCC(=O)O` is below 30%. Could you check?
(A) 1.0

(Q) Hello, I'm reviewing records and need to know if growth of `Cn1cc(-c2nn3cc(-c4cccs4)nc3s2)c2cc(F)ccc21` is below 30%. Could you check?
(A) 0.0

(Q) Hello, I'm reviewing records and need to know if growth of `CCCCNC(=O)Oc1ccc(/C(=C(/C)Cc2ccc(OC)cc2)c2ccc(OCCN3CCCCC3)cc2)cc1` is below 30%. Could you check?
(A) 0.0

(Q) Hello, I'm reviewing records and need to know if growth of `Fc1cc(Nc2ccc3c(OCCCN4CCOCC4)cccc3n2)ccc1Cl` is below 30%. Could you check?
(A) 1.0

(Q) Hello, I'm reviewing records and need to know if growth of `CC[C@]12C=CCN3CC[C@@]4(c5ccc(OC)cc5N(C)[C@H]4[C@@](O)(C(=O)OC)[C@@H]1OC(=O)CCC[P+](c1ccccc1)(c1ccccc1)c1ccccc1)[C@@H]32` is below 30%. Could you check?
(A) 1.0

(Q) Hello, I'm reviewing records and need to know if growth of `COc1cccc(/C=N/NC(=O)c2ccccc2N2CCCC2)c1O` is below 30%. Could you check?
(A) 1.0

(Q) Hello, I'm reviewing records and need to know if growth of CC[N+]1(CC)CC[N+]2(CCCC(C)CC2)CC1 (stereo unspecified) is below 30%. Could you check?
(A) 0.0

(Q) Hello, I'm reviewing records and need to know if growth of `O=[N+]([O-])c1ccc(-c2cn3nc(-c4c[nH]c5ccccc45)sc3n2)cc1` is below 30%. Could you check?
(A) 0.0

(Q) Hello, I'm reviewing records and need to know if growth of `CCN1CCN(c2cc(C)nc(N(CCNc3ccnc4cc(Cl)ccc34)Cc3ccc4c(c3)OCO4)n2)CC1` is below 30%. Could you check?
(A) 1.0
